Please provide measured IC50 for the entries that follow.
Target: Rac GTPase-activating protein 1 (Homo sapiens, UniProt Q9H0H5)
Sequence (Q9H0H5 whole entry): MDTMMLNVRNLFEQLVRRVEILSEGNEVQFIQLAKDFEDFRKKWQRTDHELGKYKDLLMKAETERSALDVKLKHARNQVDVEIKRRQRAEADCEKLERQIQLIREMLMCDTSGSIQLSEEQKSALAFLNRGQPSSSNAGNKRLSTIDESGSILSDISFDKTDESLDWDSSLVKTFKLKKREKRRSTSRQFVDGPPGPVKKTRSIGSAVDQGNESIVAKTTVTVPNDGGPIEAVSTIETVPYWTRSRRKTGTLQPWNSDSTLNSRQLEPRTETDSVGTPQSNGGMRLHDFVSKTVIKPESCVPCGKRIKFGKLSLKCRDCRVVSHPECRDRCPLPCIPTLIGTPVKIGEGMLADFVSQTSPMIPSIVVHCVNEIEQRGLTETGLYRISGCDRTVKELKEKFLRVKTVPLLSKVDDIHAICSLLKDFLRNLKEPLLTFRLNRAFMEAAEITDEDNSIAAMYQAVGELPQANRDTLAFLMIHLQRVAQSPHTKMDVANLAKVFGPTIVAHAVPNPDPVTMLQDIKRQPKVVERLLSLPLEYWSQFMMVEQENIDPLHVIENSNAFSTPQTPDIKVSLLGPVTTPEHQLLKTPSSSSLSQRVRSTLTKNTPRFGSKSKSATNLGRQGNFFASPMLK
Assay: blockers of MgcRacGAP-driven Rac1 GTP hydrolysis – biochemical, ADP Hunter fluorescence, primary and confirmatory, confirmation (AID 624330)
Type: functional
Calls of active or inactive are those of the source. No rule for the calls is given here.

Below are worked cases with known answers.
- molecule: "Cc1ccc(CN2CCN(Cc3ccccc3C(F)(F)F)CC2)cc1"
  IC50: "40.4 µM (active)"
- molecule: "O=C(N/C(=C\\c1ccc(O)cc1)C(=O)N1CCCCC1)c1ccccc1"
  IC50: "47.3 µM (active)"
- molecule: "CC(C(=O)N1CCCc2ccccc21)N1CCN(c2ccccn2)CC1 (stereo unspecified)"
  IC50: "93.9 µM (active)"

Could I get IC50 for every one of these entries?
1. C[n+]1c2cc(N)ccc2cc2ccc(N)cc21
2. Nc1ccc(Cn2ccc3c4c(N)nc(N)nc4ccc32)cc1
3. Cc1cc(Cl)cc(C)c1OCCOCCNCc1ccccc1
4. COc1ccc(NC2CCCN(C(=O)c3cc(C)nc4cc(F)ccc34)C2)cc1 (stereo unspecified)
5. Cc1ccc(C(C)(C)C)cc1S(=O)(=O)N1CCC(C(=O)N2CCN(c3ccc(O)cc3)CC2)CC1
6. CN1CC(=O)N(CC(=O)Nc2ccc(N(C)C)cc2)c2ccccc2C1=O
7. Nc1nc(Sc2ccc([N+](=O)[O-])c3nonc23)c2[nH]cnc2n1
8. O=C1/C(=C\c2ccc(Cl)c(Cl)c2)CN(C(=O)CCN2CCOCC2)C/C1=C/c1ccc(Cl)c(Cl)c1

["78.3 µM (active)", "77 µM (active)", "128 µM (active)", "120 µM (active)", "99.1 µM (active)", "56.7 µM (active)", "49.7 µM (active)", "121 µM (active)"]

Numbers sourced from ChEMBL document CHEMBL1201862.
